# study_system: human recombinant CTSC (Homo sapiens (Human))
# assay_procedure: CTSC inhibition assay (in vitro), fluorescent substrate GF-AFC
# Format: biochemical
# reported_conditions: 30 μmol/L GF-AFC, pH 5.0, 25° C.
# Protocol: 1. CTSC Inhibition Assay (In Vitro) A test specimen was evaluated by a CTSC inhibition assay using a fluorescent substrate GF-AFC (Gly-Phe-7-Amino-4-trifluoromethylcoumarin, MP Biomedical, 03AFC03325). Since the GF-AFC is converted by CTSC to aminotrifluoromethylcoumarin having a specific fluorescence wavelength and the produced amount is proportional to CTSC activity, quantitative analysis was performed by measuring a fluorescence intensity with a plate reader. […]
measurement_type: IC50 (nM)

Field: example entries. Status: answers known.
{"columns": ["molecule", "measurement_type", "test_result"],
 "data": [
  ["O=C([C@@H]1C[C@@H](O)C2(CCC2)CN1)N1CCC(c2nc(C3CC(F)(F)C3)no2)(C(F)(F)F)CC1", "IC50", 2.36],
  ["O=C([C@@H]1C[C@@H](O)C2(CCC2)CN1)N1CCC(c2ccc(F)cn2)(c2noc(C3CC(F)(F)C3)n2)CC1", "IC50", 2.74],
  ["CC(C)C1(c2nc(C3CCC(F)(F)CC3)no2)CN(C(=O)[C@@H]2CC[C@@]3(CCO3)CN2)C1", "IC50", 2.51],
  ["O=C([C@@H]1C[C@@H](O)C2(CCC2)CN1)N1CCC(c2noc(C3CCC(F)(F)CO3)n2)(C(F)(F)F)CC1 (some centres unmarked) [Example 64]", "IC50", 0.69],
  ["CC1(O)CC[C@@H](C(=O)N2CCC(c3noc(C4CC(F)(F)C4)n3)(C(F)(F)F)CC2)NC1 (some centres unmarked)", "IC50", 187]
]}

1. CC(C)C1(C(=O)NCC2CCC(F)(F)CC2)CN(C(=O)[C@@H]2C[C@@H](O)C3(CCC3)CN2)C1
2. CC(C)C1(c2noc(C3CCC(F)(F)CC3)n2)CN(C(=O)[C@@H]2C[C@@H](O)C3(CCC3)CN2)C1
3. CS[C@@H]1CN[C@H](C(=O)N2CCC(c3noc(C4CCC(F)(F)CC4)n3)(C(C)C)CC2)C1
4. CC1(C)CN[C@H](C(=O)N2CCC(c3nnn(-c4ccc(F)c(F)c4)n3)CC2)C[C@H]1O
Arrange these molecules by their IC50, starting with the largest number. Form field (ranking): labels in requested order.
3, 4, 2, 1
(3: 254 nM, 4: 2.41 nM, 2: 1.19 nM, 1: 0.83 nM)

====

# study_system: human recombinant CTSC (Homo sapiens (Human), UniProt P53634)
# Sequence (P53634 25-134): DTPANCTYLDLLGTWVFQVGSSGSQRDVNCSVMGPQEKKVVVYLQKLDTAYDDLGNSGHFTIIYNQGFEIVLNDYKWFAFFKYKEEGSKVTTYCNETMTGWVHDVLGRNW
# Sequence (P53634 231-394): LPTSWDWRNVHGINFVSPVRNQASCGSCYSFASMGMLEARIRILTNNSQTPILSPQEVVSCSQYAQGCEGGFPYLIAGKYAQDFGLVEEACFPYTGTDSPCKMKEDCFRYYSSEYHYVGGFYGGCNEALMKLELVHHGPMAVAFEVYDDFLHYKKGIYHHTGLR
# Sequence (P53634 395-463): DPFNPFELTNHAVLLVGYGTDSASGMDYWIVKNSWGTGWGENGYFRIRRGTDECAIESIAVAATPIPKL
# assay_procedure: CTSC inhibition assay (in vitro), fluorescent substrate GF-AFC
# Format: biochemical
# reported_conditions: 30 μmol/L GF-AFC, pH 5.0, 25° C.
Counter-ions that a name gives are not always drawn.
measurement_type: IC50 (nM)

{"columns": ["compound", "unit_of_measurement", "test_result"],
 "data": [
  ["O=C([C@@H]1C[C@@H](O)C2(CCC2)CN1)N1CCC(c2nccc(N3CCC(F)(F)CC3)n2)CC1 [Example 94]", "nM", 0.37],
  ["O=C([C@@H]1C[C@@H](O)C2(CCC2)CN1)N1CCC(C(=O)N2CCO[C@@H](C(F)(F)F)C2)(C(F)(F)F)CC1 [Example 37]", "nM", 28.4],
  ["O=C([C@@H]1C[C@@H](O)C2(CCC2)CN1)N1CCC(C(=O)N2CCC(C(F)(F)F)C2)(C(F)(F)F)CC1 (stereo partly drawn) [Example 35]", "nM", 3.39],
  ["CC(C)C1(c2nc(C3CCC(F)(F)CC3)no2)CN(C(=O)[C@@H]2C[C@@H](O)C3(CCC3)CN2)C1 [Example 19]", "nM", 1.23],
  ["CC1(C)CN[C@H](C(=O)N2CCC(c3nnn(-c4ccc(F)cc4)n3)CC2)C[C@H]1O [Example 90]", "nM", 4.34]
]}

P. CC(NC(=O)C1(C(F)(F)F)CCN(C(=O)[C@@H]2CC[C@@]3(CCO3)CN2)CC1)C1CCC(F)(F)CC1 (stereo partly drawn) [Example 33]
Q. O=C([C@@H]1C[C@@H](O)C2(CCC2)CN1)N1CCC(c2noc(C3CCOCC3)n2)(C(F)(F)F)CC1 [Example 61]
Which numeric IC50 is bigger, that of P or that of Q ? Kindly give the label for the entry you pick.
Q
(Q: 5.72 nM, P: 2.62 nM)

A. CC(C)C1(c2noc(C3CCC(F)(F)CC3)n2)CCN(C(=O)[C@H]2NC3CCC2CC3)CC1 [Example 23]
B. O=C([C@@H]1C[C@@H](O)C2(CCC2)CN1)N1CCC(c2cnn(-c3ccc(F)cc3)c2)CC1 [Example 93]
C. O=C([C@@H]1C[C@@H](O)C2(CCC2)CN1)N1CCC(c2ccsc2)(c2noc(C3CC(F)(F)C3)n2)CC1 [Example 79]
D. CC1(C)CN[C@H](C(=O)N2CCC(c3noc(C4CC(F)(F)C4)n3)(C(F)(F)F)CC2)C[C@H]1O [Example 51]
Which order do these items take when sorted by rising IC50? List them. In your reply, arrange the labels in the requested order.
C, B, D, A
(C: 2.17 nM, B: 3.92 nM, D: 8.28 nM, A: 88.8 nM)

I. CC(C)C1(c2nnc(C3CCC(F)(F)CC3)o2)CN(C(=O)[C@@H]2C[C@@H](O)C3(CCC3)CN2)C1 [Example 16, trifluoroacetate]
II. CN(C)C1(c2nc(C3CC(F)(F)C3)no2)CCN(C(=O)[C@@H]2C[C@@H](O)C3(CCC3)CN2)CC1 [Example 75]
Lowest IC50? choose I or II Lab log: write the label of the selected item as the result.
II
